- target_of_assay: T1, AAV8 (adeno-associated virus 8, Assembled 60-mer capsid of VP1/VP2/VP3 (nested products of one cap gene), amine-coupled to a CM5 chip; the letters give one VP1 subunit only.)
- T1 construct: also called adeno-associated virus serotype 8
- T1 chain: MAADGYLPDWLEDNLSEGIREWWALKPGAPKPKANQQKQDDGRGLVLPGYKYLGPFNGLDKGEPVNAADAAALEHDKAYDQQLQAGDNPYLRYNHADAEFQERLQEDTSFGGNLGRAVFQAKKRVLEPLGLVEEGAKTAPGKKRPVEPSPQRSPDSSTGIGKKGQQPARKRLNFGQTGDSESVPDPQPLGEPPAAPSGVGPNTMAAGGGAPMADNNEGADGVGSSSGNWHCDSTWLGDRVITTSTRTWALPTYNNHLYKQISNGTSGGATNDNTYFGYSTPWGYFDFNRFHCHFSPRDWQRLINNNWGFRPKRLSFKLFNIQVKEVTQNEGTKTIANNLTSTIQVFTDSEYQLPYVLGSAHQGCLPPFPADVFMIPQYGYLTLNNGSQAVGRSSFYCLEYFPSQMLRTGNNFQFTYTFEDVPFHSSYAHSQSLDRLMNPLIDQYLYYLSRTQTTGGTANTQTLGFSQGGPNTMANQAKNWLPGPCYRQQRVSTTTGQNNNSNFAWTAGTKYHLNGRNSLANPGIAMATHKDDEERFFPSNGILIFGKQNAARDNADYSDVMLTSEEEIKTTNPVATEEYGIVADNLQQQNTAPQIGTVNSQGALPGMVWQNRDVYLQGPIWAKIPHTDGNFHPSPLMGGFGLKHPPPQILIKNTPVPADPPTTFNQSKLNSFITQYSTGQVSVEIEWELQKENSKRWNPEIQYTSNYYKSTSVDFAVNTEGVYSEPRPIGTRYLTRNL
- procedure_text: SPR, AAV amine-coupled to CM5 chip
quantity: Kd (nM)
Only the number, expressed in nM, is required.

- binder: "A4-C6 (bispecific antibody) VQLQESGGGLVQPGGSLRLSCAASGSNFRINTMGWYRQAPGKQRELVAPVTRGGSTNYADSVKGRFTISRDNAKNTVYLQMNSLRPEDTAVYYCHVDEVRESSWTTSNLWGQGTQVTVSSGGGGSGGGGSGGGGSVQLQESGGGLVQPGGSLRLSCAASGSNFSINTMGWYRQAPGKQRELVAALTRGGSTNYADSVKGRFTISRDNAKNTVYLQMNSLRPEDTAVYYCHVDEVRESSWTTSNLWGQGTQVTVSSGGGGSGGGGSGGGGSVQLQESGGGLVQPGGSLRLSCAASGSNFSINTMGWYRQAPGKQRELVATVTRGGDTNYADSVKGRFTISRDNAKNTVYLQMNSLRPEDTAVYYCHVDEIRESSWTTSNLWGQGTQVTVSS"
  test_result: 2.67

Turning to the following binder.
Using the record for A4-C7 (bispecific antibody) VQLQESGGGLVQPGGSLRLSCAASGSNFSINTMGWYRQAPGKQRELVATVTRGGDTNYADSVKGRFTISRDNAKNTVYLQMNSLRPEDTAVYYCHVDEIRESSWTTSNLWGQGTQVTVSSGGGGSGGGGSGGGGSVQLQESGGGLVQPGGSLRLSCAASGSNFRINTMGWYRQAPGKQRELVAPVTRGGSTNYADSVKGRFTISRDNAKNTVYLQMNSLRPEDTAVYYCHVDEVRESSWTTSNLWGQGTQVTVSSGGGGSGGGGSGGGGSVQLQESGGGLVQPGGSLRLSCAASGSSFTINTMGWYRQAPGKQRELVAAVTRGGSTNYAGSVKGRFTISRDNAKNTIYLQMNSLRPEDTAVYYCHVDEIRQSSWTTSNLWGQGTQVTVSS , report its Kd.
3.7
